- measured_target: T1, ULBP4-Fc (R&D Systems) (human, UniProt Q8TD07 31-225)
- T1 construct: not shown: Fc of the bought reagent
- T1 sequence (looked up): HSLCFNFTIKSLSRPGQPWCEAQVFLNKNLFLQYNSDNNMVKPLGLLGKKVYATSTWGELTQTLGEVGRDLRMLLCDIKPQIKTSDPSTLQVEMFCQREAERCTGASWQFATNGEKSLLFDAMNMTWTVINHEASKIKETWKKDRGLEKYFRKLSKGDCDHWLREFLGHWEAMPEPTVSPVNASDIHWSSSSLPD
- procedure_details: ELISA, ligand-Fc coated, biotinylated NKG2D titrated
measured_property: binding result

binder	result
His-avitag natural NKG2D ectodomain, biotinylated (receptor, also called natural form of the ectodomain of NKG2D) EPHHHHHHGLNDIFEAQKIEWHENSLFNQEVQIPLTESYCGPCPKNWICYKNNCYQFFDESKNWYESQASCMSQNASLLKVYSKEDQDLLKLVKSYHWMGLVHIPTNGSWQWEDGSILSPNLLTIIEMQKGDCALYASSFKGYIENCSTPNTYICMQRTV	binds
Y199A mutant NKG2D ectodomain (His-avitag, biotinylated) (receptor, not shown: N-terminal His-avitag) EPHHHHHHGLNDIFEAQKIEWHENSLFNQEVQIPLTESYCGPCPKNWICYKNNCYQFFDESKNWYESQASCMSQNASLLKVYSKEDQDLLKLVKSYHWMGLVHIPTNGSWQWEDGSILSPNLLTIIEMQKGDCALYASSFKGAIENCSTPNTYICMQRTV	no binding
Y152A mutant NKG2D ectodomain (His-avitag, biotinylated) (receptor, also called Y152A non-natural NKG2D receptor; not shown: N-terminal His-avitag) EPHHHHHHGLNDIFEAQKIEWHENSLFNQEVQIPLTESYCGPCPKNWICYKNNCYQFFDESKNWYESQASCMSQNASLLKVYSKEDQDLLKLVKSAHWMGLVHIPTNGSWQWEDGSILSPNLLTIIEMQKGDCALYASSFKGYIENCSTPNTYICMQRTV	no binding
double Y152A plus Y199A mutant NKG2D ectodomain (His-avitag, biotinylated) (receptor, not shown: N-terminal His-avitag) EPHHHHHHGLNDIFEAQKIEWHENSLFNQEVQIPLTESYCGPCPKNWICYKNNCYQFFDESKNWYESQASCMSQNASLLKVYSKEDQDLLKLVKSAHWMGLVHIPTNGSWQWEDGSILSPNLLTIIEMQKGDCALYASSFKGAIENCSTPNTYICMQRTV	no binding
